# measurement.protocol: Aqueous solubility of progesterone in buffer, bile and lipolytic products
# Type: physicochemical
# reported.conditions: Buffer + 15 mM bile, pH 6.5, 37° C.; read-out: Progesterone solubility after 120 minutes
recorded.endpoint: solubility at 2 h (µg/mL)
Numbers only, in µg/mL.

**Query** GET /values?readout=solubility at 2 h&item= CC(=O)[C@H]1CC[C@H]2[C@@H]3CCC4=CC(=O)CC[C@]4(C)[C@H]3CC[C@]12C
**Result** 45.5

###

# measurement.protocol: Aqueous solubility of progesterone in buffer, bile and lipolytic products
# Format: physicochemical
# reported.conditions: Buffer + 15 mM ox bile + 0.5% MCLPs, pH 6.5, 37° C.; read-out: Progesterone solubility after 60 minutes
recorded.endpoint: solubility at 1 h (µg/mL)
One number for each entry, in µg/mL.

**Query** I have this molecule here, CC(=O)[C@H]1CC[C@H]2[C@@H]3CCC4=CC(=O)CC[C@]4(C)[C@H]3CC[C@]12C [Progesterone, progesterone] , and I need its recorded solubility at 1 h.
**Result** 136

###

# measurement.protocol: Aqueous solubility of progesterone in buffer, bile and lipolytic products
# Assay type: physicochemical
# reported.conditions: aqueous buffer; Buffer alone, pH 6.5, 37° C.; read-out: Progesterone solubility after 120 minutes
recorded.endpoint: solubility at 2 h (µg/mL)
Numbers only, in µg/mL.

**Query** Given the entry CC(=O)[C@H]1CC[C@H]2[C@@H]3CCC4=CC(=O)CC[C@]4(C)[C@H]3CC[C@]12C , report its measured solubility at 2 h.
**Result** 9.47

###

# measurement.protocol: Aqueous solubility of progesterone in buffer, bile and lipolytic products
# Format: physicochemical
# reported.conditions: Buffer + 15 mM ox bile + 0.5% LCLPs, pH 6.5, 37° C.; read-out: Progesterone solubility after 60 minutes
recorded.endpoint: solubility at 1 h (µg/mL)
One number for each entry, in µg/mL.

**Query** What value of measured solubility at 1 h is listed for CC(=O)[C@H]1CC[C@H]2[C@@H]3CCC4=CC(=O)CC[C@]4(C)[C@H]3CC[C@]12C [Progesterone, progesterone] ?
**Result** 153
